# measured-on: Sodium channel protein type 5 subunit alpha (Homo sapiens, UniProt Q14524)
# Sequence (Q14524 whole entry): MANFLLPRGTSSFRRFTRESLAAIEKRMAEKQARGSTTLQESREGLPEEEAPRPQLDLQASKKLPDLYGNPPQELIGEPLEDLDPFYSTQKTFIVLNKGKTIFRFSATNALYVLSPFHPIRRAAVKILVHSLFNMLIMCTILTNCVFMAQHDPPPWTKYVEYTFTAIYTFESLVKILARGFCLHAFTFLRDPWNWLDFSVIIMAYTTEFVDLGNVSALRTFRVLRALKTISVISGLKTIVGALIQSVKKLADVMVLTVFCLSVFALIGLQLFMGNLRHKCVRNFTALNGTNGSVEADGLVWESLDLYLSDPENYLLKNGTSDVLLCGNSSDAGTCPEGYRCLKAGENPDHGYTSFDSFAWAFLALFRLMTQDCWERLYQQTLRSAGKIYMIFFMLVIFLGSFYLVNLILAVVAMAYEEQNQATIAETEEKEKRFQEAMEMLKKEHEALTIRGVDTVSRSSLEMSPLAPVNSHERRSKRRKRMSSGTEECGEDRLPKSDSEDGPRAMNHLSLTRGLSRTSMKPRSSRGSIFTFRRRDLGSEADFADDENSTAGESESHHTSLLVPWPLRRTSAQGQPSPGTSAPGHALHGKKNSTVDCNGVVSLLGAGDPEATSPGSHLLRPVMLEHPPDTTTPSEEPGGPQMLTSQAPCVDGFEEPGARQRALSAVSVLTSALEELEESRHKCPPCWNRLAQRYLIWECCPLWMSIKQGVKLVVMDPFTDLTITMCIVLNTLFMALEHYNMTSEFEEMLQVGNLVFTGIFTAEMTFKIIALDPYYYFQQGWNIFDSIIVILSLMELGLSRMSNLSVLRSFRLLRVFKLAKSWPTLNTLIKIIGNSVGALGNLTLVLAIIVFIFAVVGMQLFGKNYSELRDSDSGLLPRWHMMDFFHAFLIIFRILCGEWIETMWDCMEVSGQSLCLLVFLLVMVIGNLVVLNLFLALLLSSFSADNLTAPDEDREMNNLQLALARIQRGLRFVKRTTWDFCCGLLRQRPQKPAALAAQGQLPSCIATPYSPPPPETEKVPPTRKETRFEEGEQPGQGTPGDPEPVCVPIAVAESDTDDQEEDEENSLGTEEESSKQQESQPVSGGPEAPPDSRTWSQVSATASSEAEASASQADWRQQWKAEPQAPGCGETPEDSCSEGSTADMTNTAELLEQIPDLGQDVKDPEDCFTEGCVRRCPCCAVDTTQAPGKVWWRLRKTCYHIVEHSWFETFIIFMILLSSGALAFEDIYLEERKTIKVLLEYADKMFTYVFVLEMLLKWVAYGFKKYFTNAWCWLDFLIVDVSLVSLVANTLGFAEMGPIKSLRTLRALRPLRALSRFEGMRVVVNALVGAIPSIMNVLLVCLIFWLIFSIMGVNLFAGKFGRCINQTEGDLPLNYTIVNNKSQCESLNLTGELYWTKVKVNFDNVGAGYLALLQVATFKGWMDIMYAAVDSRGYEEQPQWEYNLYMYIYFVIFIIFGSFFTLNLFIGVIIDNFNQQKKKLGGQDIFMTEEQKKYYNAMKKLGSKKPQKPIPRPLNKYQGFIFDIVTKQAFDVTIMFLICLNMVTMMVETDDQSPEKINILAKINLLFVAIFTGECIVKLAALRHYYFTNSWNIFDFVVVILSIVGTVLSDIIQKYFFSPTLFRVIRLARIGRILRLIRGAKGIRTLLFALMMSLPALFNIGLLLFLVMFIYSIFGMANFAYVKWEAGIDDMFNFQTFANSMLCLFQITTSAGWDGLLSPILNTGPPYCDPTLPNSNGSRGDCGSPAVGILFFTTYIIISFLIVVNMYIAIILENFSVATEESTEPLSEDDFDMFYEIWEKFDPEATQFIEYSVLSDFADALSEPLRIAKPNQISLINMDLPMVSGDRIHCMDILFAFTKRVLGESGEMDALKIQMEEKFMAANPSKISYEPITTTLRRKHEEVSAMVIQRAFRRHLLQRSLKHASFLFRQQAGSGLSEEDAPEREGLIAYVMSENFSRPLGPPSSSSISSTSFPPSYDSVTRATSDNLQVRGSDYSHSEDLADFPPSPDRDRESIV
# Format: functional, cell-based
readout-type: AC50

compound: c1ccc([C@H]2CN3CCSC3=N2)cc1 [LEVAMISOLE]
measured-result: > 50 µM
--
compound: CC[C@H]1[C@@H](O)[C@@H]2[C@H](CC[C@]3(C)[C@@H]([C@H](C)CCC(=O)O)CC[C@@H]23)[C@@]2(C)CC[C@@H](O)C[C@@H]12 [OBETICHOLIC ACID]
measured-result: > 30 µM
--
compound: COc1ccc2c3c1O[C@H]1[C@@H](O)C=C[C@H]4[C@@H](C2)N(C)CC[C@@]341 [CODEINE]
measured-result: > 30 µM

// batch mode: one AC50 value per listed entry
1. CCOC(=O)[C@H](CCc1ccccc1)N[C@@H](C)C(=O)N1[C@H](C(=O)O)C[C@@H]2CCC[C@@H]21
2. CN(C)CCC(c1ccc(Cl)cc1)c1ccccn1 (stereo not drawn) [CHLORPHENIRAMINE]
3. O=C(CCNNC(=O)c1ccncc1)NCc1ccccc1 [NIALAMIDE]
4. CC[C@@H](C(N)=O)N1CCCC1=O

Found:
1: > 30 µM; 2: > 30 µM; 3: > 50 µM; 4: > 50 µM

Below are 2 compounds. Give each one its AC50.
1. Cc1cn([C@H]2C[C@H](N=[N+]=[N-])[C@@H](CO)O2)c(=O)[nH]c1=O [ZIDOVUDINE]
2. COC(=O)C1=C(C)NC(C)=C(C(=O)OC(C)(C)CN(C)CCC(c2ccccc2)c2ccccc2)C1c1cccc([N+](=O)[O-])c1 (stereo not drawn) [LERCANIDIPINE]

Found:
1: > 30 µM; 2: > 50 µM
